# ASSAY INFO: Tmax in rat at 25 mg/kg, po
# Assay type: ADME, organism-based
# EXPERIMENTAL PARAMETERS: in vivo
The compounds listed here are annotated with their Tmax.
I'd appreciate it if you wrote the number followed by its unit.

C[C@H]1[C@H](C)CC[C@]2(C(=O)O)CC[C@]3(C)C(=CC[C@@H]4[C@@]5(C)CC[C@H](O)C(C)(C)[C@@H]5CC[C@]43C)[C@H]12 [URSOLIC ACID] : 15 min

Request: Which Tmax value is on record for `Cc1oc(=O)oc1COC(=O)[C@]12CC[C@@H](C)[C@H](C)[C@H]1C1=CC[C@@H]3[C@@]4(C)CC[C@H](O)C(C)(C)[C@@H]4CC[C@@]3(C)[C@]1(C)CC2` ?
Response: 87.6 min

---

# ASSAY INFO: Oral bioavailability in rat at 25 mg/kg
# Format: ADME, organism-based
# EXPERIMENTAL PARAMETERS: in vivo
OBSERVABLE: bioavailability (%)
Respond with the bare value in %.

Request: Which bioavailability value is on record for `Cc1oc(=O)oc1COC(=O)[C@]12CC[C@@H](C)[C@H](C)[C@H]1C1=CC[C@@H]3[C@@]4(C)CC[C@H](O)C(C)(C)[C@@H]4CC[C@@]3(C)[C@]1(C)CC2` ?
Response: 2.3

---

The compounds listed here are annotated with their Cmax.
# ASSAY INFO: Cmax in rat at 25 mg/kg, po
# Type: ADME, organism-based
# Parameters: dose 25 mg/kg, route oral
# EXPERIMENTAL PARAMETERS: in vivo
Respond with the bare value in ng/mL.

Cc1oc(=O)oc1COC(=O)[C@]12CC[C@@H](C)[C@H](C)[C@H]1C1=CC[C@@H]3[C@@]4(C)CC[C@H](O)C(C)(C)[C@@H]4CC[C@@]3(C)[C@]1(C)CC2 : 30.3

Turning now to a further record.
Request: Which Cmax value is on record for `C[C@H]1[C@H](C)CC[C@]2(C(=O)O)CC[C@]3(C)C(=CC[C@@H]4[C@@]5(C)CC[C@H](O)C(C)(C)[C@@H]5CC[C@]43C)[C@H]12` ?
Response: 1.9

---

# ASSAY INFO: Dissociation constant, pKa of the compound
# Type: physicochemical
OBSERVABLE: pKa
Answer as a number with no unit attached.

Request: Which pKa value is on record for `C[C@H]1[C@H](C)CC[C@]2(C(=O)O)CC[C@]3(C)C(=CC[C@@H]4[C@@]5(C)CC[C@H](O)C(C)(C)[C@@H]5CC[C@]43C)[C@H]12` ?
Response: 5.29

---

# ASSAY INFO: in vivo
# EXPERIMENTAL PARAMETERS: rat, iv, 0.5 mg/kg
# Description: Cmax in rat at 0.5 mg/kg, iv
OBSERVABLE: Cmax (ng/mL)
Respond with the bare value in ng/mL.

Request: Which Cmax value is on record for `C[C@H]1[C@H](C)CC[C@]2(C(=O)O)CC[C@]3(C)C(=CC[C@@H]4[C@@]5(C)CC[C@H](O)C(C)(C)[C@@H]5CC[C@]43C)[C@H]12` ?
Response: 378

---

# ASSAY INFO: Oral bioavailability in Sprague-Dawley rat at 25 mg/kg
# Assay type: ADME, organism-based
# EXPERIMENTAL PARAMETERS: in vivo
OBSERVABLE: bioavailability (%)
Respond with the bare value in %.

Request: Which bioavailability value is on record for `CC1(C)CC[C@]2(C(=O)O)CC[C@]3(C)C(=CC[C@@H]4[C@@]5(C)CC[C@H](O)C(C)(C)[C@@H]5CC[C@]43C)[C@@H]2C1` ?
Response: 0.7
